Consider the following compounds; for each one, report its PCAF.
Target: PCAF (Homo sapiens)
Construct: gene KAT2B
Sequence (Q92831 whole entry): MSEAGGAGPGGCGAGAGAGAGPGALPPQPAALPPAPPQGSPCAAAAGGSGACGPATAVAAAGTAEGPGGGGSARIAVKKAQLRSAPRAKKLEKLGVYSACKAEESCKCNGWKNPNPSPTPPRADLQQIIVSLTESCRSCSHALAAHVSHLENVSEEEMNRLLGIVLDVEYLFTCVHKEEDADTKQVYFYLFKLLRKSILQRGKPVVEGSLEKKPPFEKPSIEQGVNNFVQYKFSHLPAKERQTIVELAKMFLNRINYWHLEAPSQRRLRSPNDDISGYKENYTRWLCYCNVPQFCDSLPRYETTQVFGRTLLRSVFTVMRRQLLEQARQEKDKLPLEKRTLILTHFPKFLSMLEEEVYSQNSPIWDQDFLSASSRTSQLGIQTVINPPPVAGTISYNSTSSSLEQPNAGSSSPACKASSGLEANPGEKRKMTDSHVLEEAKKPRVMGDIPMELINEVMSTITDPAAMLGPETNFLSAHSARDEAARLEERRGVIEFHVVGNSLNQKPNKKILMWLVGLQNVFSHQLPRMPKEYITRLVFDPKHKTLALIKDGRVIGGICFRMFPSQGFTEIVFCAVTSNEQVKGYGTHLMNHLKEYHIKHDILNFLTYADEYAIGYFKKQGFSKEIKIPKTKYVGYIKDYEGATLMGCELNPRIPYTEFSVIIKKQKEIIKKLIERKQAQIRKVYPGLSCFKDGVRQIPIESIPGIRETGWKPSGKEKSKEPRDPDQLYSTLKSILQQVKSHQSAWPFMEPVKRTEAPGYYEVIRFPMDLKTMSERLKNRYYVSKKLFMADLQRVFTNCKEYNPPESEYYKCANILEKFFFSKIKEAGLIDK
Parameters: Intact protein LC/MS covalent labelling, fragments in pools of five, 200 uM each, 4 °C
Details: 24 h, 4 °C, pool of five; 200 µM; covalent
Method: Incubations were performed at 200 μM for each compound and 2 μM of protein (10 μM for BSA) for 24 h at 4 °C with moderate shaking. […] Following incubation, we used intact protein [compound left out] chromatography/mass spectrometry (LC/MS) to identify the fragments and quantify their labeling (Figure 3A). […]
One number for each entry.

Consider the following illustrative entries.
O=C(CCl)Nc1ccc2[nH]c(=O)[nH]c2c1 :: 0
O=C(CCl)Nc1cccc(N2CCCC2=O)c1 :: 0
C=CC(=O)NCc1ccc2cnn(C)c2c1 :: 0
O=C(CCl)N1CCc2cc([N+](=O)[O-])ccc21 :: 0
COc1ccc(N2CCN(C(=O)CCl)CC2)cc1 :: 0

Return reported PCAF values for all items listed beneath this line.
1. CN(CCC#N)C(=O)CCl
2. CC(C)(C)NC(=O)NC(=O)CCl
3. Cc1ccccc1C(C)NC(=O)CCl (stereo not drawn)

0
0
0

----------
experiment: in vitro; parameters: species or system CCD841, HEK293; conditions: human, hb2 cells, read-out: HB-2 Cells Viability (%)
viability at 48 h, 10 µM class ranges: low (below 40%), medium (40% to below 90%), high (90% or more)

Cc1ccc(NC(=O)CCl)c(F)c1 [PCM-0103028] :: medium
O=C(Nc1ccccc1)NN(C(=O)CCl)c1ccccc1 [PCM-0102957] :: low
Cl.O=C(CCl)N1CCN(C2CCS(=O)(=O)C2)CC1 (centres unmarked) [PCM-0102405] :: high

Lab note: next compound to report on.
Note: place this compound into its band. Item: NS(=O)(=O)c1cccc(NC(=O)CCl)c1 [PCM-0102162]
low

----------
molecular target: NUDT7 (Homo sapiens); construct: residues 14-235, E. coli, pNIC28-Bsa4, N-terminal His6 tag removed by TEV, construct 26672 Da; set-up: Intact protein LC/MS covalent labelling, fragments in pools of five, 200 uM each, 4 °C; conditions: 24 h, 4 °C, pool of five; 200 µM; covalent
Sequence (P0C024 14-235): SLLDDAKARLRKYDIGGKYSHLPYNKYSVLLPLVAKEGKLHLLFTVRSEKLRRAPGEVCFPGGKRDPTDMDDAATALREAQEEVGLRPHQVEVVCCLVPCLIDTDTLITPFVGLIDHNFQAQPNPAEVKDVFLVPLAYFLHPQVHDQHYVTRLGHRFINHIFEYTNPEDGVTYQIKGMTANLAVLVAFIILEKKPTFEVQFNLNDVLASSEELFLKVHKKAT
quantity: NUDT7
Numbers only.

Consider the following illustrative entries.
O=C(CCl)Nc1nnn[nH]1 :: 0
Cl.O=C(CCl)Nc1ccncc1 :: 0
CC1CCCN(C(=O)CCl)C1 (stereo not drawn) :: 0
O=C(CCl)Nc1cccc2c1N=S=N2 :: 0
CC(NC(=O)CCl)C1CC1 (stereo not drawn) :: 0

Return reported NUDT7 values for all items listed beneath this line.
1. O=C(CCl)Nc1ccc2[nH]c(=O)[nH]c2c1
2. O=C(CCl)NC(=O)c1cccc([N+](=O)[O-])c1
3. O=C(CCl)Nc1cccnc1N1CCCC1
4. Cl.O=C(CCl)N1CCN(c2cccc(Cl)c2)CC1
5. CN(CC12CC3CC(CC(C3)C1)C2)C(=O)CCl

[0, 0, 0, 0.22, 0.26]

Return reported NUDT7 values for all items listed beneath this line.
1. Cc1cc(C)c(C(C)NC(=O)CCl)cc1C (stereo not drawn)
2. COc1cccc(C2CCCN2C(=O)CCl)c1 (racemic)
3. N#Cc1cccc(NC(=O)CCl)c1
4. O=C(CCl)Nc1ccccc1
5. O=C(CCl)N1CCCC1c1ccsc1 (stereo not drawn)
6. C=CC(=O)N1CC(=O)NC2CCCCC21 (stereo not drawn)
7. O=C(CCl)N1c2ccccc2NC(=O)C12CCCC2
8. CC(C)(C)CCNC(=O)CCl

0
0.68
0
0
0.2
0
0.18
0

----------
biological target: OTUB2 (OTUB2A) (Homo sapiens, UniProt Q96DC9); construct: full length residues 1-234, E. coli BL21(DE3)-R3, His tag removed by TEV, construct 27312 Da; design: Intact protein LC/MS covalent labelling, fragments in pools of five, 200 uM each, 4 °C; conditions: 24 h, 4 °C, pool of five; 200 µM; covalent
Sequence (Q96DC9 whole entry, the tested form may be a part): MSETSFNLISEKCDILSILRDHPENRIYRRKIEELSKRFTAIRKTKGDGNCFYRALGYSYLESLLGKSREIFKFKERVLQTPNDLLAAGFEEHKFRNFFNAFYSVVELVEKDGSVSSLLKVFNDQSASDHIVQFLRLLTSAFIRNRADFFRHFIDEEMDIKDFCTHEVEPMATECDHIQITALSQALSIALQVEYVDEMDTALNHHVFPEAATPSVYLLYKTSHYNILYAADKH
quantity: OTUB2
Answers are plain numbers.

C=CC(=O)Nc1ccc2c(c1)OCO2 :: 0
O=C(CCl)Nc1cccc2ccccc12 :: 0.54
O=C(CCl)NC(=O)C1COc2ccccc2O1 (stereo not drawn) :: 0
CCc1sc(C(=O)NNC(=O)CCl)cc1C :: 1
Cl.O=C(CCl)Nc1ccc(Cl)cn1 :: 0

Next, consider the following compound.
Any idea what its OTUB2 is? The compound is CN(Cc1cc(Br)cs1)C(=O)CCl
0

----------
experiment: in vitro; set-up: species or system HB2, HEK293; conditions: human, ccd841 cells
The label t is reserved for viability at 48 h, 10 µM strictly under 90%; f covers values equal to or above it.

As a guide, the following entries are already answered.
O=C(CCl)Nc1ccccc1C(F)(F)F :: f
CC1CCCCN1C(=O)CCl (stereo not drawn) :: t
O=C(CCl)Nc1cccc(C(=O)O)c1 :: t
O=C(CCl)Nc1ccc2c(c1)OC1(CCCCC1)O2 :: t
C=CC(=O)N1CCCC(c2ncc(C(F)(F)F)[nH]2)C1 (stereo not drawn) :: f

Lab note: next compound to report on.
Regarding O=C(CCl)NCc1ccc(Cl)s1 , kindly confirm whether its viability at 48 h, 10 µM is beneath 90%.
t

----------
target: NNMT (hNNMT) (Homo sapiens); construct: wild type, N-terminal His6 tag kept (no cleavage described), E. coli, construct 31248 Da; parameters: Intact protein LC/MS covalent labelling, fragments in pools of five, 200 uM each, 4 °C; conditions: 24 h, 4 °C, pool of five; 200 µM; covalent
Sequence (P40261 whole entry, the tested form may be a part): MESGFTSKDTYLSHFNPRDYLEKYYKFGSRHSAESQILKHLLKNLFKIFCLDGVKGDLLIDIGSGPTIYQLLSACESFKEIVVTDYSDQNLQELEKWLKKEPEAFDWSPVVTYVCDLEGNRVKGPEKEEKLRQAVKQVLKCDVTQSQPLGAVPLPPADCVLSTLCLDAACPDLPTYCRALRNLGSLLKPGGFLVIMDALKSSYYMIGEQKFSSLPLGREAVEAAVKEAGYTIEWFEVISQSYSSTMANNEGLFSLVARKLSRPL
Label rule, in plain words: NNMT of 0.2 and up is fulfilled, under 0.2 is not fulfilled.

As a guide, the following entries are already answered.
O=C(CCl)Nc1ccc(N2CCCCC2)nc1 :: fulfilled
O=C(CCl)NNC(=O)C1CC1 :: not fulfilled
O=C(CCl)Nc1ccc2c(c1)NC(=O)CO2 :: fulfilled
Cc1ccc(NC(=O)NC(=O)CCl)cc1 :: fulfilled
N#CC1(NC(=O)CCl)CCC1 :: not fulfilled

Assess whether reported NNMT for C=CC(=O)N1CCc2sccc2C1c1cccs1 (stereo not drawn) sits at 0.2 or higher.
not fulfilled

Also check CN(Cc1ccccc1)C(=O)CCl
not fulfilled

Also check COc1ccccc1C(=O)NC(=O)CCl
not fulfilled

Also check C=CC(=O)N1CC(C)(C)C1c1cccs1 (stereo not drawn)
not fulfilled

Also check O=C(CCl)NC(=O)c1ccc[nH]1
not fulfilled

Also check Cc1ccc(S(N)(=O)=O)cc1NC(=O)CCl
not fulfilled

Also check CN(CC1CC1)C(=O)CCl
not fulfilled

----------
assay: in vitro; design: species or system HB2, CCD841; conditions: human, hek293 cells
Consider the following compounds; for each one, report its viability at 48 h, 10 µM.
Numbers only, in %.

C=CC(=O)N1CCC2(CC1)NC(=O)C1(CCCCC1)N2 [PCM-0102520] :: 107
CCCNC(=O)NC(=O)CCl [PCM-0102702] :: 82.9
C=CC(=O)NCc1ccon1 [PCM-0102482] :: 90.3
O=C(CCl)N=c1sccn1Cc1ccccc1 [PCM-0102469] :: 7
Cc1nnc(NC(=O)CCl)s1 [PCM-0102211] :: 90.5
CC(C)(C)c1nnc(NC(=O)CCl)s1 [PCM-0102736] :: 81.5
CC(NC(=O)CCl)C(=O)O (centres unmarked) [PCM-0102990] :: 103
CNC(=O)CNC(=O)CCl [PCM-0102279] :: 112

Return reported viability at 48 h, 10 µM values for all items listed beneath this line.
1. O=C(CCl)N1CCc2cc([N+](=O)[O-])ccc21 [PCM-0102403]
2. COc1ccc(C2CCCCCN2C(=O)CCl)cc1 (centres unmarked) [PCM-0102558]
3. CC(NC(=O)CCl)c1ccc(Cl)c(Cl)c1 (centres unmarked) [PCM-0102096]

50.4
15.3
21.3

----------
test: in vitro; set-up: species or system HB2, HEK293; settings: human, ccd841 cells
The label 1 is reserved for viability at 48 h, 10 µM strictly under 80%; 0 covers values equal to or above it.

O=C(CCl)N(CC(F)(F)F)c1ccc(Cl)cc1 :: 1

Regarding O=C(CCl)N1CCN(S(=O)(=O)c2cccs2)CC1 , kindly confirm whether its viability at 48 h, 10 µM is beneath 80%.
1

Also check C=CC(=O)N1CCC(CN2C(=O)CNC2=O)C1 (centres unmarked)
0

Also check O=C(CCl)N1CCN(S(=O)(=O)c2ccccc2Cl)CC1
1

Also check O=C(CCl)Nc1ccc(F)c(Cl)c1
1

Also check CC1(C)C2CCC1(C)C(NC(=O)CCl)C2 (centres unmarked)
0

Also check C=CC(=O)N1CC(OC(=O)NC(C)C)C1
0

Also check O=C(CCl)Nc1c(Cl)cccc1Cl
1

Also check O=C(CCl)N1CCC2(CC1)OCCO2
0

Also check C=CC(=O)NCc1c2c(nn1C)CCCC2
0
